Recorded IC50 values for a group of compounds are listed next.
- Test system: JJN-3 (NIK translocated) multiple myeloma cells
- PROTOCOL_SUMMARY: Antiproliferative activity on JJN-3 multiple myeloma cells (CellTiter-Glo)
- Format: cell-based, human
- TEST_CONTEXT: Homo sapiens, JJN-3, 96 h, JJN-3 (NIK translocated) cells, 96 hr treatment, averaged values, read-out: JJN-3 Proliferation inhibition (IC50 (nM))

INPUT: Which value of IC50 has been reported for C[C@]1(CO)CNc2c(C#N)cc(-c3ccnc(Nc4cc(F)cn(CCN5CCOCC5)c4=O)n3)cc21 in the records?
OUTPUT: ~1780 nM

INPUT: Which value of IC50 has been reported for C[C@]1(CO)CNc2c(C#N)cc(-c3ccnc(Nc4cccn(CC(O)CO)c4=O)n3)cc21 (stereo partly drawn) [Compound 31i] in the records?
OUTPUT: ~5010 nM

INPUT: Which value of IC50 has been reported for COCCOc1nc(P(C)(C)=O)ncc1Nc1nccc(-c2cc(C#N)c3c(c2)[C@@](C)(CO)CN3)n1 in the records?
OUTPUT: ~10000 nM

* * *

- Tested on: JJN-3 (NIK translocated) multiple myeloma cells
- PROTOCOL_SUMMARY: Antiproliferative activity on JJN-3 multiple myeloma cells (CellTiter-Glo)
- Type: cell-based, human
- TEST_CONTEXT: Homo sapiens, JJN-3, 96 h, JJN-3 (NIK translocated) cells, 96 hr treatment, averaged values, read-out: JJN-3 Proliferation inhibition (IC50 (nM))
ATTRIBUTE_MEASURED: IC50 (nM)

Cc1cc(Nc2nccc(-c3cc(C#N)c4c(c3)[C@@](C)(CO)CN4)n2)c(=O)n(CCN2CCCOCC2)c1 [Compound 20i] | 41

(A) COCCCc1ncc(C)cc1Nc1nccc(-c2cc(C#N)c3c(c2)[C@@](C)(CO)CN3)n1
(B) COc1nc(C(F)(F)F)ccc1Nc1nccc(-c2cc(C#N)c3c(c2)[C@@](C)(CO)CN3)n1
(C) C[C@]1(CO)CNc2c(C#N)cc(-c3ccnc(Nc4cc(Cl)cnc4C4CC4)n3)cc21
(D) COc1ncccc1Nc1nccc(-c2cc(C#N)c3c(c2)C(C)(CN2CCNCC2)CN3)n1 (centres unmarked)
INPUT: Order these by IC50, descending, and give the full ranking. Sort the labels as requested; that list is your answer.
OUTPUT: B, D, A, C

* * *

- MEASURED_ON: recombinant human NF-kappaB-inducing Kinase (NIK/MAP3K14) (Homo sapiens)
- Sequence (Q99558 whole entry): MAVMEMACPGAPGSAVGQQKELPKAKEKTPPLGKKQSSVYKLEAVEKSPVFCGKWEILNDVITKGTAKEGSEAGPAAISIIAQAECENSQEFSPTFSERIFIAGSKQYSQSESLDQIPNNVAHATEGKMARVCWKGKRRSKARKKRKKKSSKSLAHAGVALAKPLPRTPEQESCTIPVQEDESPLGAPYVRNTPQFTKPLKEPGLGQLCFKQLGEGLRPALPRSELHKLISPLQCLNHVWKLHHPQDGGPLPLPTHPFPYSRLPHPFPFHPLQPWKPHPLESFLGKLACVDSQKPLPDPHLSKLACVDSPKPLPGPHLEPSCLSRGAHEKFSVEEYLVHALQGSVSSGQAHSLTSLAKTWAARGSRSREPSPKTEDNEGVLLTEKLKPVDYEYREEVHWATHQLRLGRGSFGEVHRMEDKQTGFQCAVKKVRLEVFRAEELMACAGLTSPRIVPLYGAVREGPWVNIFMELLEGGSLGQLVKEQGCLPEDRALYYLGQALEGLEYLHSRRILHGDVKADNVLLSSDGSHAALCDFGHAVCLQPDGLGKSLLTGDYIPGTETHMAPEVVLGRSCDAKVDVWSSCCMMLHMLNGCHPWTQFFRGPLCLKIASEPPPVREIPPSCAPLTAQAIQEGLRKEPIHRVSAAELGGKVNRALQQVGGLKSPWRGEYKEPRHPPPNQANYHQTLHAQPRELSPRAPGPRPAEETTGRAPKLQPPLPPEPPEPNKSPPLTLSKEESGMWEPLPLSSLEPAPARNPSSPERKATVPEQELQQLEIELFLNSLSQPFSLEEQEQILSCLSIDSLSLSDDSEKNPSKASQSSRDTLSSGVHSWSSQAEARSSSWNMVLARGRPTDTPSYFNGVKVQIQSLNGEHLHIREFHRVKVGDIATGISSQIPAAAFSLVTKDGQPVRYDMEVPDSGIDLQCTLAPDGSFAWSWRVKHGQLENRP
- PROTOCOL_SUMMARY: Inhibition of auto-phosphorylation of recombinant human NIK/MAP3K14 activity (AlphaScreen)
- Format: biochemical
- TEST_CONTEXT: 25 microM ATP, averaged over all measurements on all batches
ATTRIBUTE_MEASURED: IC50 (nM)

COCCCn1cccc(Nc2nccc(-c3cc(C#N)c4c(c3)[C@@](C)(CO)CN4)n2)c1=O [Compound 10i] | 3
COCCOc1ncc(F)cc1Nc1nccc(-c2cc(C#N)c3c(c2)[C@@](C)(CO)CN3)n1 [Compound 61] | 3
C[C@]1(CO)CNc2c(C#N)cc(-c3ccnc(Nc4cccnc4OCC4CC4)n3)cc21 [Compound 45] | 9.1

(I) Cc1cc(Nc2nccc(-c3cc(C#N)c4c(c3)[C@@](C)(CO)CN4)n2)c(=O)n(CCC2CC2)c1 [Compound 5i]
(II) Cc1cnc(OC2CCN(C)CC2F)c(Nc2nccc(-c3cc(C#N)c4c(c3)[C@@](C)(CO)CN4)n2)c1 (mixture of isomers) [Compound 171]
(III) CC(C)OCCOc1ncccc1Nc1nccc(-c2cc(C#N)c3c(c2)[C@@](C)(CO)CN3)n1 [Compound 19]
(IV) Cc1cc(Nc2nccc(-c3cc(C#N)c4c(c3)[C@@](C)(CO)CN4)n2)c(CCC2CC2)nc1P(C)(C)=O [Compound 96]
INPUT: I would appreciate it if you could sort these 4 compounds by IC50, starting from the smallest number. Sort the labels as requested; that list is your answer.
OUTPUT: IV, I, II, III
(IV: 2.2 nM, I: 4.5 nM, II: 7.4 nM, III: 14.5 nM)

(P) CNC(=O)c1cnc(CCC2CC2)c(Nc2nccc(-c3cc(C#N)c4c(c3)[C@@](C)(CO)CN4)n2)c1 [Compound 87]
(Q) Cc1cnc(OCC2CN(C)CCO2)c(Nc2nccc(-c3cc(C#N)c4c(c3)[C@@](C)(CO)CN4)n2)c1 (single isomer, unassigned) [Compound 151]
(R) COc1nc(-c2cnn(C)c2)c(C)cc1Nc1nccc(-c2cc(C#N)c3c(c2)[C@@](C)(CO)CN3)n1 [Compound 91]
INPUT: I would appreciate it if you could sort these 3 compounds by IC50, starting from the smallest number. Sort the labels as requested; that list is your answer.
OUTPUT: P, Q, R

* * *

- System: JJN-3 (NIK translocated) multiple myeloma cells
- PROTOCOL_SUMMARY: Antiproliferative activity on JJN-3 multiple myeloma cells (CellTiter-Glo)
- Type: cell-based, human
- TEST_CONTEXT: Homo sapiens, JJN-3, 96 h, JJN-3 (NIK translocated) cells, 96 hr treatment, averaged values, read-out: JJN-3 Proliferation inhibition (IC50 (nM))
Recorded IC50 values for a group of compounds are listed next.

COCCNc1nc(OC)c(Nc2nccc(-c3cc(C#N)c4c(c3)[C@](C)(CO)CN4)n2)cc1Cl [Compound 11] | ~347 nM
Cn1cc(Cl)cc(Nc2nccc(-c3cc(C#N)c4c(c3)C(C)(CO)CN4)n2)c1=O (stereo not drawn) [Compound 15i] | ~427 nM

Field: next compound
INPUT: Which value of IC50 has been reported for Cc1nc(Nc2nccc(-c3cc(C#N)c4c(c3)[C@@](C)(CO)CN4)n2)cc(N2CCN(CCO)CC2)n1 [Compound 133] in the records?
OUTPUT: ~1950 nM

* * *

- Tested on: JJN-3 (NIK translocated) multiple myeloma cells
- PROTOCOL_SUMMARY: Antiproliferative activity on JJN-3 multiple myeloma cells (CellTiter-Glo)
- Type: cell-based, human
- TEST_CONTEXT: Homo sapiens, JJN-3, 96 h, JJN-3 (NIK translocated) cells, 96 hr treatment, averaged values, read-out: JJN-3 Proliferation inhibition (IC50 (nM))
Recorded IC50 values for a group of compounds are listed next.

CC1(COc2ncc(C#N)cc2Nc2nccc(-c3cc(C#N)c4c(c3)[C@@](C)(CO)CN4)n2)COC1 [Compound 76] | > 10000 nM
COc1ncccc1Nc1nccc(-c2cc(C#N)c3c(c2)[C@@](C)(CO)CN3)n1 [Compound 6] | ~245 nM

INPUT: Which value of IC50 has been reported for [2H]C([2H])([2H])Oc1ncccc1Nc1nccc(-c2cc(C#N)c3c(c2)C(C)(CO)CN3)n1 (stereo not drawn) [Compound 17] in the records?
OUTPUT: 288 nM
